Field: Ki. System: Metabotropic glutamate receptor 2 (Homo sapiens). Provenance: assorted publications.
Sequence (Q14416 whole entry): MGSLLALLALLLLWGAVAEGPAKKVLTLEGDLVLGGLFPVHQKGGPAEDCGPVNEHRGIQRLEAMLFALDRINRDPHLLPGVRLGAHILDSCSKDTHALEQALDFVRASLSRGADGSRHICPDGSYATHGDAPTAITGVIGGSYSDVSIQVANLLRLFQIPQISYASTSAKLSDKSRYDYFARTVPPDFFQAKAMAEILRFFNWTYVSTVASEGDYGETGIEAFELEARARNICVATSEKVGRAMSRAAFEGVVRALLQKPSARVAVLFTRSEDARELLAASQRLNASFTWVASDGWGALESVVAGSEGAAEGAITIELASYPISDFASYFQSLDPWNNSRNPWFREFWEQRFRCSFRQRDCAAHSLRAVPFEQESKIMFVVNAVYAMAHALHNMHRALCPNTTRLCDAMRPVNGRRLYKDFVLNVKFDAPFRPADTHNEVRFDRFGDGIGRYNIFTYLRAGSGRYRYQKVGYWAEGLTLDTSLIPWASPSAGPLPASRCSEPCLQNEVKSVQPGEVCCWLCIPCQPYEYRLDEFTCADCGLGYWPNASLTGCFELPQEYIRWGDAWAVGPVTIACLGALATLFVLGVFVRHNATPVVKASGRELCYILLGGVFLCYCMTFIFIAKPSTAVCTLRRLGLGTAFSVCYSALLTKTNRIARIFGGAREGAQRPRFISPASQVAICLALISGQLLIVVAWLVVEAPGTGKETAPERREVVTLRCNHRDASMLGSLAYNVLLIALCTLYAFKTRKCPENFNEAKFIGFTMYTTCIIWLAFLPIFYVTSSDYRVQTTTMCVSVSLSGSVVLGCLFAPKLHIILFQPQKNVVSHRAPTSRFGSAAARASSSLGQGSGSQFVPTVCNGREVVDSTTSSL

These solved cases illustrate the format of a correct answer.
Compound | Endpoint Result
CCCCc1c(O)noc1C[C@@H](N)C(=O)O | > 10 µM
C=C1CC2C(CCC3(C)C2CC(=C)C3(OC(C)=O)C(C)=O)C2(C)CCC(=O)C=C12 (stereo unspecified) | > 10 µM
C[C@](N)(C(=O)O)C1C[C@@H]1C(=O)O (stereo partly specified) | 0.069 µM

Asked: Find the measured Ki of NC(C(=O)O)c1ccc(C(=O)O)c(O)c1 (stereo unspecified) with Metabotropic glutamate receptor 2 (Homo sapiens) as test system.
Given back: > 10 µM

Asked: Find the measured Ki of O=C(O)[C@H]1C[C@H](C(=O)O)N1 with Metabotropic glutamate receptor 2 (Homo sapiens) as test system.
Given back: > 10 µM

Asked: Find the measured Ki of C[C@@](N)(C(=O)O)c1ccc(C(=O)O)cc1 (racemic) with Metabotropic glutamate receptor 2 (Homo sapiens) as test system.
Given back: 0.334 µM
